# assay target: recombinant human GST-SYK (Homo sapiens, UniProt P43405)
# Construct: purchased Carna Biosciences 08-176
# test protocol: Homogeneous Time-Resolved Fluorescence (HTRF) assay for the recombinant human Syk enzyme
# Type: biochemical
# condition label: GST-hSYK 5 pM, ATP 25 μM, 10-dose titration 10 μM to 0.508 nM; read-out: rhSYK Activity (IC50 rating)
result type: IC50

Worked cases, IC50 given:
> print(dat)
                                   compound  endpoint.value
1  CCc1cccc(Nc2cc(NC[C@@H](N)COC)cnc2C(N)=O)n1         < 10 nM
2  NC(=O)c1ncc(N[C@@H]2CS(=O)(=O)CC[C@@H]2N)cc1Nc1ccn(-c2ccc(F)cc2)n1 (relative stereo)         < 10 nM
3  CCC(CN)Nc1cnc(C(N)=O)c(Nc2ccn(C)n2)c1 (centres unmarked)  100 to 1000 nM
4  Cc1nc(Nc2cc(N[C@@H]3CCCC[C@@H]3N)cnc2C(N)=O)ccc1-c1ccc2c(cnn2C)c1         < 10 nM
5  Cc1nc(Nc2cc(N[C@@H]3CCCC[C@@H]3N)cnc2C(N)=O)ccc1-c1ccc(C(=O)O)cc1         < 10 nM

### Prompt // query IC50 value for entry `Cc1cccc(-c2ccc(Nc3cc(N[C@@H]4CCCC[C@@H]4N)cnc3C(N)=O)nc2C)c1O`
### Response 10 to 100 nM

### Prompt For `COC[C@H](N)CNc1cnc(C(N)=O)c(Nc2cccc(-n3nccn3)n2)c1` then?
### Response < 10 nM

### Prompt For `Cc1cc(OC(C)C)cc(Nc2cc(N[C@@H]3CCCC[C@@H]3N)cnc2C(N)=O)n1` then?
### Response < 10 nM
